# Tested on: velvetleaf
# procedure.summary: Test C pre-/postemergence test
# Format: in vivo, Abutilon theophrasti
# measurement.setup: 62 g ai/ha, Preemergence; scale 0 to 100
measurement.label: Velvetleaf plant response rating
Write no unit; give the number alone.

Would you please look over these solved cases?
> print(dat)
                                   compound                 measurement.label  quantitative.readout
1  CCc1cc[n+]([O-])c(S(=O)(=O)Cc2c(C(F)(F)F)nn(C)c2OCC(F)(F)F)c1 [Compound 60]  Velvetleaf plant response rating                    40
2  Cn1nc(C(F)(F)F)c(CS(=O)(=O)c2ccc(Cl)c[n+]2[O-])c1OCC(F)(F)F [Compound 73]  Velvetleaf plant response rating                    30

--- query ---
What value of measured Velvetleaf plant response rating is listed for Cn1nc(C(F)(F)F)c(CS(=O)(=O)c2ccc(Cl)c[n+]2[O-])c1Cl [Compound 18] ? 0

Origin of the recorded values: patent US20100298141A1
